System: Micrococcus luteus
Test: Antibacterial activity against Micrococcus luteus assessed as inhibition of bacterial growth incubated for 16 to 20 hrs by CLSI based microdilution method
Assay type: functional
Details: time 16-20 hrs
Assign labels as follows, please: class 1 for MIC below 60 µg/mL; class 0 for MIC equal to or exceeding 60 µg/mL.

CPD SMILES	CATEGORY LABEL
C=CCc1cccc(Oc2ccc(C(=O)CC)cc2)c1OCCCC[N+](C)(C)CC(=O)N(CC)CC.[Br-]	class 0
C=CCc1cccc(Oc2ccc(C(=O)CC)cc2)c1OCCC[N+](C)(C)CC(=O)N1CCCC1.[Br-]	class 1
C=CCc1cccc(Oc2ccc(C(=O)CC)cc2)c1OCCCC[N+](C)(C)CC(=O)NCCC.[Br-]	class 0
C=CCc1cccc(Oc2ccc(C(=O)CC)cc2)c1OCCC[N+](C)(C)CC(=O)N(CCCC)CCCC.[Br-]	class 1
C=CCc1cccc(Oc2ccc(C(=O)CC)cc2)c1OCCCC[N+](C)(C)CC(=O)NCC.[Br-]	class 0
CN[C@H](CC(C)C)C(=O)N[C@H]1C(=O)N[C@@H](CC(N)=O)C(=O)N[C@H]2C(=O)N[C@H]3C(=O)N[C@H](C(=O)N[C@H](C(=O)O)c4cc(O)cc(O)c4-c4cc3ccc4O)[C@H](O)c3ccc(c(Cl)c3)Oc3cc2cc(c3O[C@@H]2O[C@H](CO)[C@@H](O)[C@H](O)[C@H]2O[C@H]2C[C@](C)(N)[C@H](O)[C@H](C)O2)Oc2ccc(cc2Cl)[C@H]1O	class 1
